Consider the following molecules; for each one, report its growth.
Test system: NCI/ADR-RES ovarian
Assay: NCI-60 one-dose screen, 48 h (100 = growth as untreated, 0 = no growth, -100 = all killed)
Details: 10 µM unless noted
Method: Growth inhibition of the NCI/ADR-RES human […] tumor cell line is measured as a screen for anti-cancer activity. Cells are grown in 96 well plates and exposed to the test compound for 48 hours. Compounds are tested at a single concentration, which is 10^-5 M for most compounds. The reported endpoint is percent growth (GI% or GIPRCNT), where numbers from 0 - 100% represent growth inhibition, and numbers from -100% - 0 represent cell death. For example, a value of 40 represents 60% growth inhibition. […]
Compounds without any hit were thinned out: in the full panel of roughly 83,000, 20% have a hit. Calls of active or inactive are those of the source. How the source made its calls: active means growth percent below 10; inactive means the rest.

INSERT INTO measurements (molecule, test_value) VALUES
  ('COc1c(B(O)O)cccc1-c1cc(C)c2c(ccc3[nH]ncc32)n1', '83.3% (inactive)'),
  ('C#CCOc1ccc2ncnc(Nc3ccc(NC(=O)C=C)cc3)c2c1', '67% (inactive)'),
  ('N=C(N)c1ccc(-c2ccc(-c3ccccc3)o2)cc1', '-5.17% (active)'),
  ('COc1cc2c(cc1OC)C(C)N(S(N)(=O)=O)CC2 (stereo not given)', '96.9% (inactive)');

Shift focus to the following entry.
Item O=C1c2ccc3c4c5ccc(c24)C(=O)N1CCCOCCCCOCCCNCc1ccc(cc1)CNCCCOCCCCOCCCN(C3=O)C5=O has what recorded growth?
90% (inactive)

* * *

test system: SNB-75 CNS; assay: NCI-60 one-dose screen, 48 h; settings: 10 µM unless noted
The panel holds about 83,000 compounds, 20% with a hit somewhere; the sample as a whole holds those more often. Active and inactive are the calls of the source. Rule for the calls: active = growth percent below 10; inactive = the rest.
Hello, when you answer, please use one of the following outcomes: YES (active), NO (inactive)

These solved cases illustrate the format of a correct answer.
INSERT INTO results (compound, assigned_label) VALUES
  ('CC(=O)N1N=C(c2ccc(Nc3nc(Nc4ccccc4)nc(Nc4ccccc4)n3)cc2)CC1c1cccc([N+](=O)[O-])c1 (configuration not stated)', 'NO'),
  ('O=C(O)CCN1C(=O)/C(=C/C(Cl)=C/c2ccccc2)SC1=S', 'NO'),
  ('CS(=O)(=O)Nc1cc(-c2ccc3ncnc(Nc4ccc5c(cnn5Cc5cccc(F)c5)c4)c3c2)cnc1Cl', 'YES'),
  ('CC(C)(Sc1cc(C(C)(C)C)c(OC(=O)CCCC(=O)O)c(C(C)(C)C)c1)Sc1cc(C(C)(C)C)c(OC(=O)CCCC(=O)O)c(C(C)(C)C)c1', 'NO'),
  ('O=c1c2cnn(-c3ccccc3)c2n2c(CN3CCOCC3)nnc2n1-c1ccccc1', 'NO'),
  ('COC1=CC(c2ccc[nH]2)=N/C1=C\c1[nH]c(C)c(CC(=O)NCc2ccccc2)c1C', 'NO');

Moving on to the next compound.
Which outcome was entered for the compound CCC1=C[C@@H]2C[C@]3(C(=O)OC)c4[nH]c5ccccc5c4CC[N@+](CC(=O)Nc4cc5c(cc4OC)N(C)[C@H]4[C@@](O)(C(=O)OC)[C@H](OC(C)=O)[C@]6(CC)C=CCN7CC[C@]54[C@@H]76)(C2)[C@H]13 in this test?
NO

* * *

tested on: HOP-92 NSCLC; test: NCI-60 one-dose screen, 48 h (100 = growth as untreated, 0 = no growth, -100 = all killed); conditions: 10 µM unless noted
Compounds without any hit were thinned out: in the full panel of roughly 83,000, 20% have a hit.
ASSAY_READOUT: growth (%)
Give bare numbers, in %.

Quick one: give me growth for each item below, same order please.
1. Cn1cc(-c2csc(-c3c[nH]c4ccc(Br)cc34)n2)c2ccnc(Cl)c21
2. Nc1ncnc2c1C(c1ccc(Br)cc1)c1sc3c(F)cccc3c1O2 (stereo not given)
3. C=CCn1c(C)nc2ccc(Nc3nc(Nc4ccc5nc(C)n(CC=C)c5c4)c4ccccc4n3)cc21
4. CCOC(=O)c1ccc2c(c1)nc(-c1ccccc1)n2C1CCCCC1
5. c1cnc2c(-c3nc4ccc5[nH]ncc5c4c4c3CCCC4)c[nH]c2c1

[64.2, 91.7, 43.2, 91.7, 40.6]

* * *

Test system: T-47D breast
Test: NCI-60 one-dose screen, 48 h
Conditions: 10 µM unless noted
Method: Growth inhibition of the T-47D human tumor cell line is measured as a screen for anti-cancer activity. Cells are grown in 96 well plates and exposed to the test compound for 48 hours. Compounds are tested at a single concentration, which is 10^-5 M for most compounds. The reported endpoint is percent growth (GI% or GIPRCNT), where numbers from 0 - 100% represent growth inhibition, and numbers from -100% - 0 represent cell death. For example, a value of 40 represents 60% growth inhibition. […]
The panel holds about 83,000 compounds, 20% with a hit somewhere; the sample as a whole holds those more often. Calls of active or inactive are those of the source. Rule for the calls: active = growth percent below 10; inactive = the rest.
Hello, when you answer, please use one of the following outcomes: active, inactive

These solved cases illustrate the format of a correct answer.
INSERT INTO assay_data (compound, assigned_label) VALUES
  ('C#CCOc1ccc2ncnc(Nc3ccc(NC(=O)C=C)cc3)c2c1', 'active'),
  ('Cc1ccccc1/C=C/C(=O)c1cccc(OCCCCOc2cccc(C(=O)/C=C/c3ccccc3C)c2)c1', 'inactive');

Which outcome was entered for the compound CC(C)=CCCC(C)c1ccc(C)c2c1OCN(CCCCCO)C2 (stereo not given) in this test?
inactive

Further, for N#Cc1ccc2c(c1)C(=O)c1c-2n(CCCN)c(=O)c2cc([N+](=O)[O-])ccc12 ?
active

Further, for O=S(=O)(Nc1ccc(Cl)c(C(F)(F)F)c1)c1ccc(-c2cnc(C3CC3)o2)cc1 ?
inactive

* * *

tested on: SNB-19 CNS; assay: NCI-60 one-dose screen, 48 h (100 = growth as untreated, 0 = no growth, -100 = all killed); conditions: 10 µM unless noted
Compounds without any hit were thinned out: in the full panel of roughly 83,000, 20% have a hit.
ASSAY_READOUT: growth (%)
One number for each entry, in %.

INSERT INTO measurements (molecule, system_under_test, assay_readout, endpoint_unit, test_value) VALUES
  ('CC(=O)c1c(C)nc2ccccc2c1/C=C/c1ccc(F)cc1', 'SNB-19 CNS', 'growth', '%', 93),
  ('Nc1n[nH]c2ccc([C@H]3[C@@H]4C5CCC(C5)[C@@H]4c4c(ccc5[nH]ncc45)N3S(=O)(=O)C3CC3)cc12 (stereo partly drawn)', 'SNB-19 CNS', 'growth', '%', 23.2),
  ('CSc1nc2ccccc2cc1/C=C1/C=C(c2ccccc2)NC1=O', 'SNB-19 CNS', 'growth', '%', 80.1);

Quick one: give me growth for each item below, same order please.
1. CC(C)(C)CC(C)(C)NC(=O)Nc1ncccc1OCc1ccccc1
2. NC(=O)CSc1oc(-c2ccccc2)nc1S(=O)(=O)c1ccc(Br)cc1
3. Nc1ncnc2c1c(-c1cccc(Cl)c1)nn2CC(=O)N1CCOCC1
4. COc1ccc(C(O)c2cc3c(N)c(C(=O)Nc4cccc(Br)c4)sc3nc2C)cc1 (stereo not drawn)
5. Cc1ccc(C2=Nc3c(N)ncnc3NC(c3cccc(Nc4ccnc5cc(C(F)(F)F)ccc45)c3)C2)cc1 (stereo not drawn)
6. C=CCn1c(SCC(=O)Nc2ccc(C(=O)/C=C/c3ccc(Cl)cc3)cc2)nnc1-c1ccc(Br)cc1
7. C=CCn1c(C)nc2ccc(Nc3nc(Nc4ccc5nc(C)n(CC=C)c5c4)c4ccccc4n3)cc21
8. COC(=O)[C@@H](CCCCNC(=O)[C@]12CCC(C)(C)C[C@@H]1C1=CC[C@@H]3[C@@]4(C)C/C(=C/c5ccco5)C(=O)C(C)(C)[C@@H]4CC[C@@]3(C)[C@]1(C)CC2)NC(=O)[C@]12CCC(C)(C)C[C@@H]1C1=CC[C@@H]3[C@@]4(C)C/C(=C/c5ccco5)C(=O)C(C)(C)[C@@H]4CC[C@@]3(C)[C@]1(C)CC2

1: 95.9; 2: 83; 3: 93.9; 4: 24.6; 5: 43.6; 6: 77.8; 7: 30.6; 8: 95.3

Quick one: give me growth for each item below, same order please.
1. N#C/C(=C\c1c(-c2ccccc2)[nH]c2ccccc12)C(N)=O
2. C#CCOc1ccc2ncnc(Nc3ccc(NC(=O)C=C)cc3)c2c1
3. Nc1nc2ccc(-c3nc4ccc5[nH]ncc5c4c4c3CCCC4)cc2s1
4. COc1cc2ncnc(Nc3ccc(S(=O)(=O)Nc4cc(C)on4)cc3)c2cc1OCCCN1CCN(c2ccc(F)cc2)CC1
5. Clc1ccc2c(NC3CCC(N4CCOCC4)CC3)ccnc2c1 (stereo not drawn)
6. COC(=O)Nc1nc2ccc(S(=O)c3ccccc3)cc2[nH]1 (stereo not drawn)
7. c1csc(-c2ccc(CNc3c4ccccc4nc4ccccc34)cc2)c1

89.6
17.6
97.7
97.3
79.3
74.9
46.2
